Test system: MDA-MB-468
protocol text: Antiproliferative activity against human MDA-MB-468 cells
Type: functional, cell-based
observable: IC50 (µM)

Reference set (3 entries):
Cn1cc(-c2cnc3ccc(NC(=O)NC(C)(C)C)nc3c2)cn1 = 1.96
Cn1cc(-c2cnc3ccc(NC(=O)Nc4ccccc4)nc3c2)cn1 = 1.31
COc1cc(-c2cnc3ccc(NC(=O)NC(C)(C)C)nc3c2)ccc1O = 3.89

A: CCNC(=O)Nc1ccc2ncc(-c3ccc(OC)c(OC)c3)cc2n1
B: Cn1cc(-c2cnc3ccc(NC(=O)NCCc4ccccc4)nc3c2)cn1
Query: Larger number for IC50: A , or B ? Choose, then provide that item's label.
Result: A

====

# Serine/threonine-protein kinase pim-1 (Homo sapiens): IC50 values follow
# Sequence (P11309 whole entry): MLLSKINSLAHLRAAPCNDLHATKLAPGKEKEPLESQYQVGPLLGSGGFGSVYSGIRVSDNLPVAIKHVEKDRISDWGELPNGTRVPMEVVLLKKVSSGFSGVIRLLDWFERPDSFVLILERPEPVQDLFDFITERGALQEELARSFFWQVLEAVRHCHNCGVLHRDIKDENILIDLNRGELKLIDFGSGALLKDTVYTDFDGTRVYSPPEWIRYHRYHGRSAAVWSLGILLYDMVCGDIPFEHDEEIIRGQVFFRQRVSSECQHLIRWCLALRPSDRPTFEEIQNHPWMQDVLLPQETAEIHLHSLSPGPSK

Reference set (4 entries):
COc1ccc(-c2cnc3ccc(NC(=O)NC(C)(C)C)nc3c2)cc1OC = > 100 µM
Cn1cc(-c2cnc3ccc(NC(=O)NCc4ccccc4)nc3c2)cn1 = > 31.6 µM
Cn1cc(-c2cnc3ccc(NC(=O)NC(C)(C)C)nc3c2)cn1 = > 100 µM
Cn1cc(-c2cnc3ccc(NC(=O)Nc4ccccc4)nc3c2)cn1 = > 31.6 µM

Turning now to a further record.
Lab note: measured IC50 of COc1cc(-c2cnc3ccc(NC(=O)NC(C)(C)C)nc3c2)ccc1O was > 100 µM

====

protocol text: Stability in mouse plasma assessed as parent compound remaining after 6 hrs
Type: ADME, cell-free
settings: read-out: Stability
observable: remaining at 6 h (%)
// note: answer is a bare numeric in %

Lab note: measured remaining at 6 h of Cn1cc(-c2cnc3ccc(NC(=O)NCCc4ccccc4)nc3c2)cn1 was 96.7

====

# High affinity nerve growth factor receptor (Homo sapiens): pIC50 values follow
# Sequence (P04629 whole entry): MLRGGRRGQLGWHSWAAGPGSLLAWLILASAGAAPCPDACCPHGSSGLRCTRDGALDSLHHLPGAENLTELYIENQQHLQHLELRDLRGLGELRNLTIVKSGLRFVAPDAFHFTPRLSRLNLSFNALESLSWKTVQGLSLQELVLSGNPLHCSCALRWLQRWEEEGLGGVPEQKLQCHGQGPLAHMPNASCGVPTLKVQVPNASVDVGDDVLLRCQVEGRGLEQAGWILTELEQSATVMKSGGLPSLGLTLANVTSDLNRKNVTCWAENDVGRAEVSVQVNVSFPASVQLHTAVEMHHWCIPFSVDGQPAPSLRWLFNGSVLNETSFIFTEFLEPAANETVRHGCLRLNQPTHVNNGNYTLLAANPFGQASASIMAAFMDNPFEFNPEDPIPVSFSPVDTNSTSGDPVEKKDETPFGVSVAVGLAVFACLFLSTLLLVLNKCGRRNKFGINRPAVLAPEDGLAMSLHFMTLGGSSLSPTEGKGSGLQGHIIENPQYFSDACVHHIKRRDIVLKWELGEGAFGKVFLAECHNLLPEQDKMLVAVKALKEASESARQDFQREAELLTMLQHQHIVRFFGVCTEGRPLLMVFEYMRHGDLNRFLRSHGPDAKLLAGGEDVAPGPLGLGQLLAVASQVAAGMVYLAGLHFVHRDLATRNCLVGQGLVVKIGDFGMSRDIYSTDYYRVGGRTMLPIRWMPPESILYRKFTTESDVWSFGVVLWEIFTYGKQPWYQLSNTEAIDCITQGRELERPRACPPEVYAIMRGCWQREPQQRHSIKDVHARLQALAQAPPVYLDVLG
pIC50: −log10 of the molar value.
observable: pIC50

A: Cn1cc(-c2cnc3ccc(NC(=O)NCCc4ccccc4)nc3c2)cn1
B: COc1cc(-c2cnc3ccc(NC(=O)NC(C)(C)C)nc3c2)ccc1O
Query: Larger number for pIC50: A , or B ? Choose, then provide that item's label.
Result: A

====

assay target: Tyrosine-protein kinase ABL1 (Homo sapiens, UniProt P00519)
Sequence (P00519 whole entry): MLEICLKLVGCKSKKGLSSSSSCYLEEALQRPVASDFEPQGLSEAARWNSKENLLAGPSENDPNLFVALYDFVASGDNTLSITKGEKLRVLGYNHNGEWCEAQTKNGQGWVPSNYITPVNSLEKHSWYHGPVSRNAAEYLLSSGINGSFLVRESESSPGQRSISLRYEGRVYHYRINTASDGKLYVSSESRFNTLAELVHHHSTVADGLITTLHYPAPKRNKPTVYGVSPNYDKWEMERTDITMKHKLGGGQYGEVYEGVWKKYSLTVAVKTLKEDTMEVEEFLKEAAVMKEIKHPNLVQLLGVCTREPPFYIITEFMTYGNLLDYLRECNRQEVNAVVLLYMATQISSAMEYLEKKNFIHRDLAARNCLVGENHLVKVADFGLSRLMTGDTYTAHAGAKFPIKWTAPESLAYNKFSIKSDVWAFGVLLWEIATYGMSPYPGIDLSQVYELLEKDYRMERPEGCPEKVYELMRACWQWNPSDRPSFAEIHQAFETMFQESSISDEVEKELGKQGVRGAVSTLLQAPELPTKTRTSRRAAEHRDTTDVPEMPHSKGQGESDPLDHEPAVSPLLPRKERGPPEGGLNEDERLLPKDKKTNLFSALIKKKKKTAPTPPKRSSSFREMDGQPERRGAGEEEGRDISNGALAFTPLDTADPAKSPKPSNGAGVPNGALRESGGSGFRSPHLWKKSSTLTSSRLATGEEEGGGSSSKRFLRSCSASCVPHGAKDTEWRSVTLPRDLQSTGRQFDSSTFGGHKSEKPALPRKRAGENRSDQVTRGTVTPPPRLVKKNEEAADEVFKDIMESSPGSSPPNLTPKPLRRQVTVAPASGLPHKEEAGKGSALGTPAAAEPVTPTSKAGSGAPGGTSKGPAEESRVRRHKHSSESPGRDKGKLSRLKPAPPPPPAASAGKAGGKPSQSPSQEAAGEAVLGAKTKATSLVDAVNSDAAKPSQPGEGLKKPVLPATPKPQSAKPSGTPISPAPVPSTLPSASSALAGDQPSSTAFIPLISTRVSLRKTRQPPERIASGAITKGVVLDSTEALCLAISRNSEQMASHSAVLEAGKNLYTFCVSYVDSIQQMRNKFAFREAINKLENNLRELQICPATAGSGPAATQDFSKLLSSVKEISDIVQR
pIC50: −log10 of the molar value.
observable: pIC50

A: CCNC(=O)Nc1ccc2ncc(-c3ccc(OC)cc3)cc2n1
B: Cn1cc(-c2cnc3ccc(NC(=O)NC(C)(C)C)nc3c2)cn1
Query: Larger number for pIC50: A , or B ? Choose, then provide that item's label.
Result: B

====

protocol text: Permeability from basolateral to apical side in human Caco2 cells in presence of 1% BSA
Format: ADME, cell-based
settings: Caco-2, read-out: permeability
observable: Papp B→A (nm/s)
// note: answer is a bare numeric in nm/s

Lab note: measured Papp B→A of Cn1cc(-c2cnc3ccc(NC(=O)NCCc4ccccc4)nc3c2)cn1 was 290

====

protocol text: Efflux ratio in human Caco2 cells in presence of 1% BSA
Format: ADME, cell-based
settings: Caco-2
observable: efflux ratio
Give the figure by itself; no unit, no explanation.

Lab note: measured efflux ratio of Cn1cc(-c2cnc3ccc(NC(=O)NCCc4ccccc4)nc3c2)cn1 was 0.45

====

protocol text: Stability in mouse liver microsomes assessed as parent compound remaining after 1 hr
Type: ADME
settings: read-out: Stability
observable: remaining at 1 h (%)

COc1ccc(-c2cnc3ccc(NC(=O)NC(C)(C)C)nc3c2)cc1OC = 70.4

P: Cn1cc(-c2cnc3ccc(NC(=O)NCCc4ccccc4)nc3c2)cn1
Q: CCNC(=O)Nc1ccc2ncc(-c3ccc(OC)c(OC)c3)cc2n1
Query: Larger number for remaining at 1 h: P , or Q ? Choose, then provide that item's label.
Result: P
